molecular target: SpLsb1; assay: SPOT peptide array binding signal intensity (averaged, normalized) (arbitrary units (background-subtracted, floor 0; scale differs between SH3 domains)); higher = stronger binding of the SH3 domain to the peptide
Provide the recorded SPOT peptide array binding signal intensity for the entries that follow.
// no unit string in output, number only

QUERY: SPOT peptide array binding signal intensity lookup needed for DKKTKPTPPPKPSHL , thanks.
RESULT: 138

QUERY: SPOT peptide array binding signal intensity lookup needed for SRSKPLPLTPNSKYN , thanks.
RESULT: 1

QUERY: SPOT peptide array binding signal intensity lookup needed for QQNRPLPQLPNRNNR , thanks.
RESULT: 82.8

QUERY: SPOT peptide array binding signal intensity lookup needed for KRRTSLFPWLHKPGI , thanks.
RESULT: 0.5

QUERY: SPOT peptide array binding signal intensity lookup needed for RRTRLRPPTPLSQLL , thanks.
RESULT: 87.8

QUERY: SPOT peptide array binding signal intensity lookup needed for IFLRISINFPLNYPN , thanks.
RESULT: 33

QUERY: SPOT peptide array binding signal intensity lookup needed for RKQRSIPLSPIVPES , thanks.
RESULT: 2

QUERY: SPOT peptide array binding signal intensity lookup needed for ITHRLRISIPGITGR , thanks.
RESULT: 10.8

QUERY: SPOT peptide array binding signal intensity lookup needed for NPTKSPPPPPSPSTM , thanks.
RESULT: 1

QUERY: SPOT peptide array binding signal intensity lookup needed for LLRRTIPKRPFYHVL , thanks.
RESULT: 36.5

QUERY: SPOT peptide array binding signal intensity lookup needed for SLSRRRFSLPSMPNV , thanks.
RESULT: 270

QUERY: SPOT peptide array binding signal intensity lookup needed for KRKRFNLLLPKPYLT , thanks.
RESULT: 3.75

QUERY: SPOT peptide array binding signal intensity lookup needed for VRTRRRPPPPPIPST , thanks.
RESULT: 63.5

QUERY: SPOT peptide array binding signal intensity lookup needed for FSRRQSMDIPSKNRN , thanks.
RESULT: 15

QUERY: SPOT peptide array binding signal intensity lookup needed for IKKRNKIRLPSGSPE , thanks.
RESULT: 6.5

QUERY: SPOT peptide array binding signal intensity lookup needed for TKRKRPARLIFYDSK , thanks.
RESULT: 4

QUERY: SPOT peptide array binding signal intensity lookup needed for FFRRSELYLPNSSKA , thanks.
RESULT: 0.75

QUERY: SPOT peptide array binding signal intensity lookup needed for NPLPKEPRLPKRKVA , thanks.
RESULT: 16

QUERY: SPOT peptide array binding signal intensity lookup needed for HRRRRVFSIPSLKSI , thanks.
RESULT: 11

QUERY: SPOT peptide array binding signal intensity lookup needed for NSVPIMPTLPPRPYI , thanks.
RESULT: 523
